target: wild type GLA (Homo sapiens, UniProt P06280); conditions: read-out: EC50 of increase of wild type GLA activity
Sequence (P06280 32-429): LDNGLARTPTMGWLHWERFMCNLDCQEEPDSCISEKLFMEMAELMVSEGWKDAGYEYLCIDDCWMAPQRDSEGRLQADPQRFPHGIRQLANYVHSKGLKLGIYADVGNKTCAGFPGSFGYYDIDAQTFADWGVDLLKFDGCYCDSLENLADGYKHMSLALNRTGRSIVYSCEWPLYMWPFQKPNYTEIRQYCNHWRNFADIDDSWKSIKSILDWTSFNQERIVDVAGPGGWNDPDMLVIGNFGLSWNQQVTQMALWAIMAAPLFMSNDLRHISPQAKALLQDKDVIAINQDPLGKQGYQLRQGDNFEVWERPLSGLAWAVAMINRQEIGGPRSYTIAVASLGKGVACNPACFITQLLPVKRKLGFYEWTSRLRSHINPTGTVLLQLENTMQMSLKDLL
observable: pEC50
Recall that pEC50 is obtained by taking minus log10 of the concentration measured in molar.

Request: Would you kindly share the measured pEC50 for Nc1c(Br)cc(Br)cc1CN[C@H]1CC[C@H](O)CC1 [Ambroxol] ?
Response: 4.67
